pIC50 values, listed per item
System: 134 cancer cell lines
Assay: Cell viability assay (ATPlite, 72 hours), IC50 on cancer cell line panel
Settings: Homo sapiens, MCF7, read-out: IC50 in cell proliferation assay, MCF-7 cell line
pIC50: −log10 of the molar value.

# Structure Notation, Measured Target, pIC50
records = [
    ("CCCS(=O)(=O)Nc1ccc(F)c(C(=O)c2c[nH]c3ncc(-c4ccc(Cl)cc4)cc23)c1F", "134 cancer cell lines", "< 4.50"),
    ("CC(C)(C)c1nc(-c2cccc(NS(=O)(=O)c3c(F)cccc3F)c2F)c(-c2ccnc(N)n2)s1", "134 cancer cell lines", "< 5.00"),
    ("CO[C@]1(C(=O)N[C@@H](C)c2ccc(-n3cc(F)cn3)nc2)CC[C@H](c2nc(C)cc(Nc3cc(C)[nH]n3)n2)CC1", "134 cancer cell lines", "< 4.50"),
]

====

Target: panel of 255 wild-type kinases (Homo sapiens)
Sequence (Q9UM73 19-1620): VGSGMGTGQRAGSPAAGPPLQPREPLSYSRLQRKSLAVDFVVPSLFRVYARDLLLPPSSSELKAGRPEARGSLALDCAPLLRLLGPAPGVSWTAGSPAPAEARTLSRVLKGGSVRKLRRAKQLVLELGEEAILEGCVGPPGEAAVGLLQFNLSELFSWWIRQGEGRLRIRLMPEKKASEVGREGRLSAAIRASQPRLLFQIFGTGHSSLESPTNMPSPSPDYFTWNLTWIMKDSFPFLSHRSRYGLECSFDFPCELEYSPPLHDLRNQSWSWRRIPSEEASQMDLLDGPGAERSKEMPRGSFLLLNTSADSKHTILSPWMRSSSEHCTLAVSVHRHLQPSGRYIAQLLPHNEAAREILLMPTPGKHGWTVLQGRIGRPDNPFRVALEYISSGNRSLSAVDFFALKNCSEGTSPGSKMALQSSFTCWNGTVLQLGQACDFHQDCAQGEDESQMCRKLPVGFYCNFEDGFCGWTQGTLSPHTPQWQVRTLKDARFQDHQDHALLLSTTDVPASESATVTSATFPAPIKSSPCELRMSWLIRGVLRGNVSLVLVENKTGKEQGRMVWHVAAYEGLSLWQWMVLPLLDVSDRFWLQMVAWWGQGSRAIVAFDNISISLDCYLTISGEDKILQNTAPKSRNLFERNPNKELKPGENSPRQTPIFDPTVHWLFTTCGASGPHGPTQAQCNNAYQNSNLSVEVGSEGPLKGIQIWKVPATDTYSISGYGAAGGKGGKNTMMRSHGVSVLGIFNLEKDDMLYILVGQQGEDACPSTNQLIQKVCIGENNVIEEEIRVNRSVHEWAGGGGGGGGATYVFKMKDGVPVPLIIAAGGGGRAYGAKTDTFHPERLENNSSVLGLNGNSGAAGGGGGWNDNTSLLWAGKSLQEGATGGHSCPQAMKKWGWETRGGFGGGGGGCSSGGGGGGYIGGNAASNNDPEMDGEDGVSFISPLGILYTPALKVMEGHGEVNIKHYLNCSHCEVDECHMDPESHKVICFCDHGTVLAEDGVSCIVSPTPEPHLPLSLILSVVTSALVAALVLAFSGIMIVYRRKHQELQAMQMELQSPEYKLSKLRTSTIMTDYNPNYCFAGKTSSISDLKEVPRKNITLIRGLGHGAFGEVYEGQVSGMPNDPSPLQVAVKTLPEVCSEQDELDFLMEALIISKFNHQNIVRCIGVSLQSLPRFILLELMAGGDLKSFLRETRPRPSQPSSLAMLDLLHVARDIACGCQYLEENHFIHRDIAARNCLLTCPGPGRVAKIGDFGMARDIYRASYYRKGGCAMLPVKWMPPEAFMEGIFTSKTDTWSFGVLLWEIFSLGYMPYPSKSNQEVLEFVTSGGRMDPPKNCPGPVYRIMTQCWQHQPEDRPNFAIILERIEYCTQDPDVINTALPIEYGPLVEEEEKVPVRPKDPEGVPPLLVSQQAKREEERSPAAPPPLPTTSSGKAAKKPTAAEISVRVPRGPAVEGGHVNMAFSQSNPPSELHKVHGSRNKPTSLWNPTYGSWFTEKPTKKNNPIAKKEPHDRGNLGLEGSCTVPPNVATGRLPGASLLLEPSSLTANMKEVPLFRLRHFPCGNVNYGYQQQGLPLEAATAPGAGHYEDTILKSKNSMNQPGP
Experiment: Kinase panel profiling at 1 µmol/L (MSA or IMAP), percentage inhibition
Format: biochemical
Settings: ALK kinase assay; 1 µmol/L single concentration; read-out: %-inhibition ALK
inhibition at 1 µM values, listed per item

# Compound, inhibition at 1 µM / %
data = [
    ("Cc1nc(NC(=O)N2CCC[C@H]2C(N)=O)sc1-c1ccnc(C(C)(C)C(F)(F)F)c1 [alpelisib]", 1.84),
    ("Cn1cnc2c(F)c(Nc3ccc(Br)cc3F)c(C(=O)NOCCO)cc21 [binimetinib]", 6.37),
    ("C=CC(=O)N1CCC([C@@H]2CCNc3c(C(N)=O)c(-c4ccc(Oc5ccccc5)cc4)nn32)CC1 [zanubrutinib]", 2.23),
    ("COC(=O)N[C@@H](C)CNc1nccc(-c2cn(C(C)C)nc2-c2cc(Cl)cc(NS(C)(=O)=O)c2F)n1 [encorafenib]", 8),
    ("CN1CCN(c2ccc(C(=O)Nc3n[nH]c4ccc(Cc5cc(F)cc(F)c5)cc34)c(NC3CCOCC3)c2)CC1 [entrectinib]", 100),
    ("COc1cc2ncnc(Nc3ccc(F)c(Cl)c3)c2cc1NC(=O)/C=C/CN1CCCCC1 [dacomitinib]", 17),
    ("Cc1cc(Nc2ncnc3ccc(NC4=NC(C)(C)CO4)cc23)ccc1Oc1ccn2ncnc2c1 [tucatinib]", 32),
    ("CCn1c(=O)c(-c2cc(NC(=O)Nc3ccccc3)c(F)cc2Br)cc2cnc(NC)cc21 [ripretinib]", 2.68),
    ("O=C(Nc1cnn2ccc(N3CCC[C@@H]3c3cc(F)ccc3F)nc12)N1CC[C@H](O)C1 [larotrectinib]", 7),
    ("CCc1nc(C(N)=O)c(Nc2ccc(N3CCC(N4CCN(C)CC4)CC3)c(OC)c2)nc1NC1CCOCC1 [gilteritinib]", 101),
    ("Cn1cc(-c2cc3c(N4CCN(c5ncc([C@@](C)(N)c6ccc(F)cc6)cn5)CC4)ncnn3c2)cn1 [avapritinib]", 35),
    ("CCN1C(=O)N(c2c(F)c(OC)cc(OC)c2F)Cc2cnc3[nH]c(CN4CCOCC4)cc3c21 [pemigatinib]", -1.12),
    ("COc1ccc(CN2C3CC2CN(c2ccc(-c4cc(OCC(C)(C)O)cn5ncc(C#N)c45)cn2)C3)cn1 [selpercatinib]", 4),
    ("CO[C@]1(C(=O)N[C@@H](C)c2ccc(-n3cc(F)cn3)nc2)CC[C@H](c2nc(C)cc(Nc3cc(C)[nH]n3)n2)CC1 [pralsetinib]", 35),
]

Data provenance is paper PMC9516332.
